- Tested on: MDA-MB-468
- Experiment: phospho-S6 immunofluorescence (DAPI-normalised), per-plate z-score; higher = higher phospho-S6 signal (less pathway suppression)
- Condition summary: co-treatment: vehicle; 24 h
Counter-ions that a name gives are not always drawn.
Quick reference: phospho-S6 immunofluorescence (z-score) of the listed items.
# output: bare number, no unit

In [3]: df
Out[3]:
                                   molecule  assay_target  value_observed
0  C[N+]1(C)CCC(OC(=O)C(O)(c2ccccc2)C2CCCC2)C1 (stereo not given) [Glycopyrrolate] (compound 10 µM)    MDA-MB-468            1.14
1  NC(N)=Nc1nc(CSCCN/C=N/S(=O)(=O)c2ccc(Br)cc2)cs1 [Ebrotidine] (compound 10 µM)    MDA-MB-468            -1.7
2  O=C(NCCCN1CCC2(CC1)OCc1ccccc12)[C@H]1CCCN1Cc1ccccc1 (compound 10 µM)    MDA-MB-468            -0.4
3  COc1cc(N)c(Cl)cc1C(=O)NC1CCN(Cc2ccccc2)CC1 [Clebopride (malate)] (compound 10 µM)    MDA-MB-468            0.29
4  CCCN[C@@H]1CCc2nc(N)sc2C1 [Dexpramipexole (dihydrochloride)] (compound 10 µM)    MDA-MB-468             0.4
5  COC1CCC(C(=O)c2ccc3nc4c(cc3c2)CCCO4)CC1 (stereo not given) (compound 10 µM)    MDA-MB-468            0.02
6  CNS(=O)(=O)Cc1ccc2[nH]cc(CCN(C)C)c2c1 [Sumatriptan (succinate)] (compound 10 µM)    MDA-MB-468            0.55
7  C[C@]12CCC(=O)C=C1CC[C@@H]1[C@@H]2CC[C@@]2(C)[C@H]1CC[C@]2(O)C(=O)CO [Cortodoxone] (compound 10 µM)    MDA-MB-468           -0.43

Determine from records and report phospho-S6 immunofluorescence (z-score) for CC(N)(C(=O)O)c1ccc(C(=O)O)cc1 (racemic) (compound 10 µM)
0.84

Determine from records and report phospho-S6 immunofluorescence (z-score) for CSc1ccc2c(c1)N(CCC1CCCCN1C)c1ccccc1S2 (stereo not given) [Thioridazine (hydrochloride)] (compound 10 µM)
-7.88

Determine from records and report phospho-S6 immunofluorescence (z-score) for O=c1n(CCCN2CCN(c3cccc(Cl)c3)CC2)nc2ccccn12 [Trazodone (hydrochloride)] (compound 10 µM)
-0.51

Determine from records and report phospho-S6 immunofluorescence (z-score) for Cc1ccc2c(c1CCC(=O)O)CC[C@@H](NS(=O)(=O)c1ccc(Cl)cc1)C2 [Terutroban] (compound 10 µM)
-0.1

Determine from records and report phospho-S6 immunofluorescence (z-score) for CCNC1(C(N)=O)CCN(c2ncnc3c2nc(-c2ccccc2Cl)n3-c2ccc(Cl)cc2)CC1 [Otenabant] (compound 10 µM)
-0.02

Determine from records and report phospho-S6 immunofluorescence (z-score) for CC(C)NCC(O)c1ccc(O)c(O)c1 (stereo not given) [Isoprenaline (hydrochloride)] (compound 10 µM)
1.65

Determine from records and report phospho-S6 immunofluorescence (z-score) for CC(C)COc1ccc(CNC(=O)N(Cc2ccc(F)cc2)C2CCN(C)CC2)cc1 [Pimavanserin tartrate] (compound 10 µM)
-5.03
